System: Fibroblast
Experiment: Multiplex assay against human fibroblast
Assay type: toxicity, cell-based
Conditions: 12 h, 1 µM, compound concentration 1 uM, replicate 2
endpoint: Population Healthy Nuclei (%)
Put down the number, then write its unit next to it.

For every record below, what is its Population Healthy Nuclei (%)?
1. O=C(NCCO)c1cccc(-c2cc(Nc3ccc(OC(F)(F)F)cc3)ncn2)c1
2. CC[C@H]1OC(=O)[C@H](C)[C@@H](O[C@H]2C[C@@](C)(OC)[C@@H](O)[C@H](C)O2)[C@H](C)[C@@H](O[C@@H]2O[C@H](C)C[C@H](N(C)C)[C@H]2O)[C@@]2(C)CC(C)=C(O2)[C@H](C)[C@@H](O)[C@]1(C)O
3. CCCn1c(=O)c2[nH]c(C3CCCC3)nc2n(CCC)c1=O

["46%", "57%", "46%"]

====

System: U2OS
Experiment: Multiplex assay against U2OS
Type: toxicity, cell-based
Details: human, 24 h, 10 µM, compound concentration 10 uM, replicate 1
Record form. Attribute: Population Mitotic Cells (%). Fill in for each entry.
One number for each entry, in %.

compound: O=S(=O)(c1ccccc1)c1cnc2c(N3CCNCC3)cccc2c1 [INTEPIRDINE]
Population Mitotic Cells (%): 27

compound: CSc1ccccc1N1CCN(CCCCCC(=O)NC2CCCc3ccccc32)CC1.Cl (configuration not stated)
Population Mitotic Cells (%): 10

compound: C[C@@H]1C[C@H]2[C@@H]3CCC4=CC(=O)C=C[C@]4(C)[C@@]3(F)[C@@H](O)C[C@]2(C)[C@@]1(O)C(=O)CO
Population Mitotic Cells (%): 17

// input: 6 compounds below; output: Population Mitotic Cells (%) for each
1. CSCC[C@H](NC=O)C(=O)N[C@@H](CC(C)C)C(=O)N[C@@H](Cc1ccccc1)C(=O)O
2. CCCn1c(=O)c2[nH]c(C3CCCC3)nc2n(CCC)c1=O
3. O=C(NCC(=O)N1CC[C@H](N[C@H]2CC[C@@](O)(c3ccc(-c4ncccn4)cn3)CC2)C1)c1cccc(C(F)(F)F)c1
4. COc1cc(C(=O)N(CCCc2ccccc2)Cc2ccc(CC(=O)O)cc2)cc(OC)c1C
5. CN1CCN2c3ncccc3Cc3ccccc3C2C1 (configuration not stated)
6. COc1c(C)cc(NC(=O)c2nn(Cc3ccc(F)cc3)c3c2CN(C(=O)c2ccc[nH]2)C[C@]3(C)C(N)=O)cc1C

1. 23
2. 10
3. 16
4. 5
5. 10
6. 33

Working through the 4 compounds below one at a time, give Population Mitotic Cells (%) for each.
1. C[C@H](NC(=O)c1c(C(F)F)nn(C)c1Oc1cccc(C(F)(F)F)c1)c1ccc(C(=O)O)cc1
2. Cc1nc2ccc(Oc3ccc(F)cc3)cc2c(=O)n1C[C@H]1CCCN(C(C)C)C1.Cl
3. C[C@H]1[C@H]2CC[C@H]3[C@@H]4CC=C5C[C@@H](N(C)C)CC[C@]5(C)[C@H]4CC[C@]23CN1C
4. CN(C)c1ccnc2sc3c(=O)n(N4CCCCCC4)cnc3c12

[8, 22, 35, 31]

For every item below, please supply its Population Mitotic Cells (%).
1. CN1CCN(c2nc3cc(C(F)(F)F)ccc3n3cccc23)CC1.O=C(O)/C=C\C(=O)O.O=C(O)/C=C\C(=O)O
2. COc1cc(NC(=O)CCN2CCC(OC(=O)Nc3ccccc3-c3ccccc3)CC2)c(Cl)cc1CNC[C@H](O)c1ccc(O)c2[nH]c(=O)ccc12
3. Cc1ccc(C(C)(O)c2nc3ccccc3s2)c(C)c1 (configuration not stated)
4. c1cc(OCCCN2CCCCC2)ccc1CN1CCCCC1

1: 24; 2: 20; 3: 11; 4: 17
